- TARGET_UNDER_TEST: serotonin transporter (Rattus norvegicus)
- Construct: frontal cortical membranes prepared from male S.D. rats; from tissue; host or cells: rat frontal cortex membranes (male Sprague-Dawley rats)
- Sequence (P31652 whole entry): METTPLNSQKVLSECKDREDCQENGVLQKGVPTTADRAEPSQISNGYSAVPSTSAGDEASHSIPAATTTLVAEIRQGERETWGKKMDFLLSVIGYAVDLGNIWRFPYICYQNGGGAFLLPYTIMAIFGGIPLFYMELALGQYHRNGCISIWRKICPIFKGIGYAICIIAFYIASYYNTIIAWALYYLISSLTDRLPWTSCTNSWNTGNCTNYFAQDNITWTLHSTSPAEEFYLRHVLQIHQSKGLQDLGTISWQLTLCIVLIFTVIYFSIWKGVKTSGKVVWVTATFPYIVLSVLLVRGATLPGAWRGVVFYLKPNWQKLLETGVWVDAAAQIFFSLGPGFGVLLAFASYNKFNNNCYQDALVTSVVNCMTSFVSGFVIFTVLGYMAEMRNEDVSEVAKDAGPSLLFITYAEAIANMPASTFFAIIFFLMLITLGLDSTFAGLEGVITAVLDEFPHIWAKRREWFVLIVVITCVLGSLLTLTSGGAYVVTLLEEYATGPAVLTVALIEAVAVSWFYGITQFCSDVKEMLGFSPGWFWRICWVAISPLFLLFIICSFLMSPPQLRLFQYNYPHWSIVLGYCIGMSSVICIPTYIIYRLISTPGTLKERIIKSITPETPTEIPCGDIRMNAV
- EXPERIMENT_NOTES: 3H-Paroxetine binding to assess affinity for the serotonin transporter
- Experimental: The affinity of drugs for the serotonin transporter was determined by assessing the ability of agents to displace specifically bound 3H-paroxetine binding from rat cortical membranes. […] Nonspecific binding was determined using fluoxetine. ^3H-Paroxetine Binding to Assess Affinity of Drugs for the Serotonin Transporter: Briefly, frontal cortical membranes prepared from male S.D. rats were incubated with ^3H-paroxetine (0.1 nM) for 60 min at 25°C. […]
Can you tell me log10(Ki) for the items I'm about to list?
Units before log transform: nM; reported quantity: Ki; transform: log10.

stdin: Reported log10(Ki), compound O[C@@H](CN1CC=C(c2c[nH]c3ccccc23)CC1)Cn1ccc2c(F)cccc21 [Example 15] : ____
stdout: -0.52

stdin: Reported log10(Ki), compound COc1cccc2c1ccn2CC(O)CN1CC=C(c2c[nH]c3ccccc23)CC1 (stereo not drawn) [Example 11] : ____
stdout: -1.40

stdin: Reported log10(Ki), compound OC(CN1CC=C(c2c[nH]c3ccccc23)CC1)Cn1ccc2cc(F)ccc21 (stereo not drawn) [Example 8] : ____
stdout: 0.15

stdin: Reported log10(Ki), compound OC(CN1CC=C(c2c[nH]c3ccccc23)CC1)Cn1ccc2c(F)cccc21 (stereo not drawn) [Example 10] : ____
stdout: -2.00

stdin: Reported log10(Ki), compound COc1cccc2c1ccn2C[C@@H](O)CN1CC=C(c2c[nH]c3ccccc23)CC1 [Example 14] : ____
stdout: -1.52

stdin: Reported log10(Ki), compound Cc1nc2ccccc2n1CC(O)CN1CC=C(c2c[nH]c3ccccc23)CC1 (stereo not drawn) [Example 13] : ____
stdout: -0.40

----------
- TARGET_UNDER_TEST: serotonin transporter (Rattus norvegicus)
- Construct: frontal cortical membranes prepared from male S.D. rats; from tissue; host or cells: rat frontal cortex membranes (male Sprague-Dawley rats)
- EXPERIMENT_NOTES: 3H-Paroxetine binding to assess affinity for the serotonin transporter
- CONDITIONS_USED: read-out: Inhibition of [3H]-Paroxetine binding Ki; compounds of formula (1); rat frontal cortical membranes, 3H-paroxetine 0.1 nM, 60 min at 25°C; nonspecific binding with fluoxetine 10 µM
METRIC: pKi
Answer as the number alone; pKi is minus log10 of concentration in mol/L.

stdin: Reported pKi, molecule OC(CN1CC=C(c2c[nH]c3ccccc23)CC1)Cn1ccc2ccccc21 (stereo not shown) [Example 12] : ____
stdout: 8.77
